Consider the following sequences and their measured PBM E-score readings.
# system: Yer184c (UniProt P39961)
# Sequence: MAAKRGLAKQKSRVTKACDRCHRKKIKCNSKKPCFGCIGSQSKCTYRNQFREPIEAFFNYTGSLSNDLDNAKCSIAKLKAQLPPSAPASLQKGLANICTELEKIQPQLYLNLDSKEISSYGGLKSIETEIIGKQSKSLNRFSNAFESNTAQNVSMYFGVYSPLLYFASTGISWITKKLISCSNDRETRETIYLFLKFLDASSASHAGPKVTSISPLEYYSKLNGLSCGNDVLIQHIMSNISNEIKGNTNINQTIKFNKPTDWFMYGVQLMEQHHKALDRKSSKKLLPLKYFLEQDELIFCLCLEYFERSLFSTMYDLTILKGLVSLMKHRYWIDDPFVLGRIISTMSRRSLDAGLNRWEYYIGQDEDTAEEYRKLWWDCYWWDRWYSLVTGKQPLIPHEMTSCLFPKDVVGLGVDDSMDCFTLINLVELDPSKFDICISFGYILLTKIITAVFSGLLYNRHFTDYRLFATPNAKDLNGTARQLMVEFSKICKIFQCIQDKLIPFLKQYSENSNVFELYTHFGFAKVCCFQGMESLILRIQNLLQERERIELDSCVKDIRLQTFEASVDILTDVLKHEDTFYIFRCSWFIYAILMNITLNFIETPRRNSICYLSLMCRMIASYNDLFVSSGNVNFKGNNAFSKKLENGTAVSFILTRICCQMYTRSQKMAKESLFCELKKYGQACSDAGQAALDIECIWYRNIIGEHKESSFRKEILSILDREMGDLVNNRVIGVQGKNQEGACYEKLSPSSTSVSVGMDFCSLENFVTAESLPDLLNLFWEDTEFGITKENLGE
# experimentalDetails: PBM E-score (8-mer binding enrichment) (E-score (-0.5 to 0.5)); higher = stronger / more preferred TF binding
# conditionDescription: protein concentration: 100 nM; construct: GST-full length
Over roughly 33,000 sequences, “E-score (-0.5 to 0.5)” has its median near -0.016; the highest 2% begin near 0.3. The entries come from a sample that favours the highest values as a whole.
Provide a numeric answer; units are not to be included.

Sample answers from the record:
Answer with the recorded PBM E-score for the sequence listed here: TAACCGGA 0.279

Write down PBM E-score measured for item CAACCGCA 0.0386

Answer with the recorded PBM E-score of CGGGCTTA only. 0.157

Others:
Given ACATACCA , respond with its PBM E-score. -0.12

Read off the recorded PBM E-score for CAACCGCC -0.042

Recall and state the measured PBM E-score for TGGCATAA . 0.139

Please indicate PBM E-score recorded for TCGTGTCA -0.0881

Consider the sequence GCTTTTCC . State its measured PBM E-score. 0.109

For the sequence CGCCTAAC , give its reported PBM E-score. -0.0428

For the sequence AAAAACAG , give its measured PBM E-score value. 0.115

Give a short answer stating reported PBM E-score for ACCAAAGT . -0.0125

For the sequence CAGTAAAG , give its reported PBM E-score. -0.177

Check the records and state PBM E-score for ATAGTGCA 0.104

Please indicate PBM E-score recorded for CCTTCTTC -0.19

Determine its reported PBM E-score: CAGCCTCG -0.0314

In one line, give reported PBM E-score of the entry GAACCGGC . 0.18

Fill in reported PBM E-score for this entry: ACATCCTG 0.0484

Give PBM E-score for the following sequence: GAGAGGAC -0.128

Please give measured PBM E-score of the following entry: ATGGCCTC -0.106

Retrieve PBM E-score measured for GAACCGGA and print it. 0.349

State its PBM E-score for this sequence: CAACCGCG 0.306

Give PBM E-score for CAAGAGGA -0.0179

Kindly indicate its recorded PBM E-score. Item: ATGCTAAA 0.0332

Please look at this sequence and report its PBM E-score: CAACCGAA 0.258

Please indicate PBM E-score recorded for GTCGCGAC 0.315

Give me measured PBM E-score, please, for this sequence: AGTATCCG 0.332
